# reported pIC50; entries follow
Test system: parental human CEM leukemia cells (CEM/WT)
Assay: Antifolate growth inhibition, 72 h drug exposure
Assay type: cell-based
Cond: Table 10; CEM/WT; 72 h drug exposure; read-out: IC50
# pIC50 is unitless: minus log10 of the molar concentration; print number only

test_smiles=Cc1ccc2nc(N)[nH]c(=O)c2c1Sc1ccncc1 experimental_system="parental human CEM leukemia cells (CEM/WT)" result_number=5.74

Below: the item to evaluate.
Recorded pIC50 of Nc1nc(N)c2nc(CNc3ccc(C(=O)N[C@@H](CCCNC(=O)c4ccccc4C(=O)O)C(=O)O)cc3)cnc2n1 , please. 8.96

----------
Test system: mouse MTX^rA leukemia transfectant harboring Glu45Lys RFC cDNA
Assay: cells
Cond: 72 h, read-out: IC50, MTX concentration which inhibits cell growth by 50%
Experimental: Thereafter, cells were washed twice with serum-free folic acid-free medium, in order to eliminate GAT. […] Thereafter, cells were exposed continuously to various concentrations of leucovorin or folic acid for 72 hours, following which cell numbers were determined by hemocytometer count of viable cells, using trypan blue exclusion. An RFC cDNA clone containing the entire coding region (hRFC 1) was directionally cloned into pCDNA3(+) at the BamHI-XhoI site (Invitrogen). […]
Assay readout: IC50 (nM)
Give the number; nM is assumed, so skip it.

Recorded IC50 of CN(Cc1cnc2nc(N)nc(N)c2n1)c1ccc(C(=O)N[C@@H](CCC(=O)O)C(=O)O)cc1 [MTX, methotrexate] , please. 15.3

----------
# reported EC50; entries follow
Tested on: mouse MTX^rA leukemia transfectant harboring Arg27/His56 RFC cDNA
Assay: Folate growth requirement in RFC transfectants
Assay type: cell-based
Cond: Mus musculus, read-out: EC50, concentration necessary to support 50% of maximal growth of control cells
Give the number; nM is assumed, so skip it.

compound=Nc1nc2ncc(CNc3ccc(C(=O)N[C@@H](CCC(=O)O)C(=O)O)cc3)nc2c(=O)[nH]1 experimental_system="mouse MTX^rA leukemia transfectant harboring Arg27/His56 RFC cDNA" assay_readout=EC50 result_number=13.1

Below: the item to evaluate.
Recorded EC50 of Nc1nc2c(c(=O)[nH]1)N(C=O)C(CNc1ccc(C(=O)N[C@@H](CCC(=O)O)C(=O)O)cc1)CN2 (some centres unmarked) [Leucovorin, 5-formyltetrahydrofolate] , please. 0.7
